The reported numbers originate from patent US20260152484A1.

Provide the recorded EC50 for the entries that follow.
- ASSAYED TARGET: human TREM2 (Homo sapiens, UniProt Q9NZC2)
- Construct: expressed in transfected cells; host or cells: HEK293T (HEK293T-hTREM2 cells)
- Sequence (Q9NZC2 19-230): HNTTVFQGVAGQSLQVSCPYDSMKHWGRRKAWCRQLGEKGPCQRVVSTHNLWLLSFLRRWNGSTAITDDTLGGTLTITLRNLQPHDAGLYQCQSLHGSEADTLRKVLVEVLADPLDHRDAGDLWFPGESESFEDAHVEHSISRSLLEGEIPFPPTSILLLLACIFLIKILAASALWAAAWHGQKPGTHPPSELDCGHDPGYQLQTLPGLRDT
- Sequence (O43914 22-113 partner): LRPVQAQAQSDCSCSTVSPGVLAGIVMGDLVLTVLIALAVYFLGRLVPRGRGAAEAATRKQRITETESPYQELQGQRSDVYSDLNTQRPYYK
- METHOD SUMMARY: Cellular phosphorylation of Syk (AlphaLisa) in HEK293T-hTREM2 cells, TREM2 agonist potency
- Format: cell-based
- COND: HEK293 cells expressing human TREM2 and DAP12; pSyk AlphaLisa; Table D

COMPOUND	ASSAY METRIC	RESULT
COc1ccc(-c2nn(CCc3ccccc3)c(=O)c3nc(C)sc23)cc1 [compound 40]	EC50	3 to 100 µM
Cc1nc2c(=O)n(C(C)c3ccc(Cl)cc3)nc(-c3ccc(Cl)cc3)c2s1 (centres unmarked) [compound 27]	EC50	3 to 100 µM
Cc1cc2c(-c3ccc(Cl)cc3)nn(-c3ccnc(C4CNC4)c3)c(=O)c2cc1C [compound 16]	EC50	0.5 to 3 µM

Kindly give each listed record's EC50.
1. CNC(Cn1nc(-c2ccc(Cl)cc2)c2sc(C)nc2c1=O)c1ccc(Cl)cc1 (centres unmarked) [compound 25]
2. CN1CCC(n2nc(-c3ccc(Cl)cc3)c3cc(Cl)c(Cl)cc3c2=O)CC1=O (centres unmarked) [compound 21]
3. Cc1nc2c(=O)n(-c3ccc(C(=O)O)cc3)nc(-c3ccc(Cl)cc3)c2s1 [compound 42]
4. Cc1nc2c(=O)n(CCc3ccccc3)nc(-c3ccc(Cl)cc3)c2s1 [compound 28]

["3 to 100 µM", "3 to 100 µM", "0.05 to 0.5 µM", "3 to 100 µM"]

I have this compound here, Cc1nc2c(=O)n(C(C)Cc3ccc(Cl)cc3)nc(-c3ccc(Cl)cc3)c2s1 (centres unmarked) [compound 30] , and I need its recorded EC50.
3 to 100 µM
